# SUBJECT OF TEST: HSP72 (Homo sapiens)
# Construct: made in house
# EXPERIMENT NOTES: FP competition assay, displacement of bisaryl-ATTO-488 11 from primary HSP72 protein
# Type: binding
# APPLIED CONDITIONS: competition with FP-probe 11, HSP72; read-out: IC50
MEASURED PARAMETER: IC50 (nM)

MOLECULE: Nc1ncnc2c1nc(NCc1ccc3ncccc3c1)n2[C@@H]1O[C@H](COCc2ccc(C(F)(F)F)cc2)[C@@H](O)[C@H]1O [compound 2]
RECORDED RESULT: 137

* * *

# SUBJECT OF TEST: HSP72/BAG1 complex (Homo sapiens, UniProt P0DMV8)
# Construct: purchased Enzo Life Sciences (BAG-1M only)
# Sequence (P0DMV8 whole entry): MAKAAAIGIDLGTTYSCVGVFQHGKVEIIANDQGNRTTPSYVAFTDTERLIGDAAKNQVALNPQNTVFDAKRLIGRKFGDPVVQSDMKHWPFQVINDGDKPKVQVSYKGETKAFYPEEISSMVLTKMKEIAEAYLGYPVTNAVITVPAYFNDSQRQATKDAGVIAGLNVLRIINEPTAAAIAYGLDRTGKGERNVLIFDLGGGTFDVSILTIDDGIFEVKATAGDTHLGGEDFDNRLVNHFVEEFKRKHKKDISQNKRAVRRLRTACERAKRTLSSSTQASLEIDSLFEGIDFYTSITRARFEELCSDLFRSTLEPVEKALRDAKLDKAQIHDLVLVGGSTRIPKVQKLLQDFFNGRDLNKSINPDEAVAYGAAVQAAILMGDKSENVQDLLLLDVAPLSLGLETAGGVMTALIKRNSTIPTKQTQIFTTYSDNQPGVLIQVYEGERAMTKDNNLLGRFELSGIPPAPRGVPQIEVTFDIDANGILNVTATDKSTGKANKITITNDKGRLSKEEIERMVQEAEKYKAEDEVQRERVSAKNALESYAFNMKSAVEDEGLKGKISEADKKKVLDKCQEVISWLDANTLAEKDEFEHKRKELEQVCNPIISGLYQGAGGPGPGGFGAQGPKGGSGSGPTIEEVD
# Sequence (Q99933 72-345 partner limits assumed): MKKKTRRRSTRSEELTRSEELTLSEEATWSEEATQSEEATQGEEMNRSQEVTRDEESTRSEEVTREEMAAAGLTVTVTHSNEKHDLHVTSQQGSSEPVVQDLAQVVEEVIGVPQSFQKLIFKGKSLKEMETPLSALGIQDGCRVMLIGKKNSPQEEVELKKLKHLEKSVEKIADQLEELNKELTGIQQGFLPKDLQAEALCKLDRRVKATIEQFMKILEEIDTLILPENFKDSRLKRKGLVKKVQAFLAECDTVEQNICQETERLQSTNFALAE
# EXPERIMENT NOTES: FP competition assay, displacement of bisaryl-ATTO-488 11 from secondary HSP72/BAG1 complex
# Type: binding
MEASURED PARAMETER: IC50 (nM)

CHEM SMILES: NC(=O)c1cn([C@@H]2O[C@H](CO)[C@@H](O)[C@H]2O)c2ncnc(N)c12
RECORDED RESULT: 1000

* * *

# SUBJECT OF TEST: HSP72 (Homo sapiens, UniProt P0DMV8)
# Construct: made in house
# EXPERIMENT NOTES: FP competition assay, displacement of bisaryl-ATTO-488 11 from primary HSP72 protein
# Assay type: binding
# APPLIED CONDITIONS: 180 nM HSP72, 10 nM probe 11, BAG1 buffer, 16 h incubation; geometric mean of at least 3 experiments; read-out: IC50 –BAG1
MEASURED PARAMETER: IC50 (nM)

COMPOUND: Nc1ncnc2c1ncn2[C@@H]1O[C@H](COP(=O)(O)OP(=O)(O)O)[C@@H](O)[C@H]1O [ADP]
MEASURED PARAMETER: IC50
RECORDED RESULT: 330
//
COMPOUND: Nc1ncnc2c1ncn2[C@@H]1O[C@H](COP(=O)(O)OP(=O)(O)OP(=O)(O)O)[C@@H](O)[C@H]1O [ATP]
MEASURED PARAMETER: IC50
RECORDED RESULT: 650
//
COMPOUND: Nc1ncnc2c1nc(NCc1ccc3ncccc3c1)n2[C@@H]1O[C@H](CO)[C@@H](O)[C@H]1O [compound 12]
MEASURED PARAMETER: IC50
RECORDED RESULT: 2000
